These measurements were taken from patent US20240391954A1.

Listing: pEC50 of selected molecules
Target: human MC4R (Homo sapiens)
Construct: host or cells: HEK-293 cells stably expressing the GScAMP22F split-luciferase cAMP sensor and hMC4R, G418 selection
Sequence (P32245 whole entry): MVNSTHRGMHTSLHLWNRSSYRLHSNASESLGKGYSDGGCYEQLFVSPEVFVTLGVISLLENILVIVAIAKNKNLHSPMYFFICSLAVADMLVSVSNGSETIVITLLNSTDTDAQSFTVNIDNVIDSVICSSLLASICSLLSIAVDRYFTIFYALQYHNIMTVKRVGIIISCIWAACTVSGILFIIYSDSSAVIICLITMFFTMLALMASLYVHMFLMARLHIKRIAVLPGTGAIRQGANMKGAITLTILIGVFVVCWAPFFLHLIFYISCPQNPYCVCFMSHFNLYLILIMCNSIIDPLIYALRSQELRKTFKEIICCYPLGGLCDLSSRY
Assay: split-luciferase cAMP sensor assay, agonist mode (measurement window 1), hMC4R
Assay type: cell-based
Conditions: HEK-293 cells stably expressing hMC4R, agonist mode; read-out: MC4R cAMP EC50
Procedure: The stable cell lines were grown and maintained in selection media consisting of Dulbecco's modified Eagle media (DMEM) with 4.5 g/l D-glucose, and 4 mM L-glutamine (Thermo Fisher Scientific, Waltham, MA), supplemented with 10% fetal bovine serum, 100 units/ml penicillin, 100 μg/ml streptomycin, 2.5 μg/ml amphotericin B, 200 μg/ml hygromycin B (for positive selection of the GScAMP22f luciferase reporter), and Geneticin™ (G418) 700 μg/ml (for MC3R or MC4R selection). […]
pEC50: −log10 of the molar value. Positions of bridges follow the written chain, without caps; N, C: chain ends. Non-standard residues stand in square brackets, D forms with d. Residues, ends and D or L forms follow the SMILES beside them. Cit = NC(=O)NCCC[C@H](N)C(=O)O; NMeA = CN[C@@H](C)C(=O)O; Nle = CCCC[C@H](N)C(=O)O; Aib = CC(C)(N)C(=O)O
OBSERVED PROPERTY: pEC50

CCCC[C@H](NC(=O)[C@H](CCCNC(=N)N)NC(C)=O)C(=O)N[C@H]1CSSC[C@@H](C(N)=O)NC(=O)[C@@H](Cc2c[nH]c3ccccc23)NC(=O)[C@H](CCCNC(=N)N)NC(=O)[C@@H](Cc2ccccc2)NC(=O)[C@H](CCCNC(N)=O)NC1=O [CTX-1608] (Ac-R[Nle]C[Cit][dF]R[dW]C-NH2; disulfide 3-8 (inferred))
6.54
N=C(N)NCCC[C@@H]1NC(=O)CNC(=O)CSC[C@@H](C(N)=O)NC(=O)[C@H](Cc2c[nH]c3ccccc23)NC(=O)[C@H](CCCNC(=N)N)NC(=O)[C@@H](Cc2ccccc2)NC1=O [CTX-1645] ({CH2CO}-GR[dF]RWC-NH2; thioether N-6)
8.80
CC(=O)N[C@@H](CCCNC(=N)N)C(=O)N[C@H]1CSSC[C@@H](C(N)=O)NC(=O)[C@@H](Cc2c[nH]c3ccccc23)NC(=O)[C@H](CCCNC(=N)N)NC(=O)[C@@H](Cc2ccccc2)NC(=O)[C@H](CCCNC(=N)N)NC(=O)[C@H](C)N(C)C1=O [CTX-1269] (Ac-RC[NMeA]R[dF]R[dW]C-NH2; disulfide 2-8 (inferred))
7.89
CC[C@H]1NC(=O)[C@@H](NC(=O)[C@H](CCCNC(=N)N)NC(C)=O)CSSC[C@@H](C(N)=O)NC(=O)[C@H](Cc2c[nH]c3ccccc23)NC(=O)[C@H](CCCNC(=N)N)NC(=O)[C@@H](Cc2ccccc2)NC(=O)[C@H](Cc2c[nH]cn2)NC1=O [CTX-1295]
9.60
COc1ccc(C[C@H]2NC(=O)[C@H](CCCNC(=N)N)NC(=O)C(C)(C)NC(=O)[C@@H](NC(=O)[C@H](CCCNC(=N)N)NC(C)=O)CSSC[C@@H](C(N)=O)NC(=O)[C@@H](Cc3c[nH]c4ccccc34)NC(=O)[C@H](CCCNC(=N)N)NC2=O)cc1 [CTX-1297] (Ac-RC[Aib]R[dY](Me)R[dW]C-NH2; disulfide 2-8 (inferred))
8.48

###

Molecular target: human MC3R (Homo sapiens, UniProt P41968)
Construct: expressed in transfected cells; host or cells: HEK-293 cells stably expressing the GScAMP22F split-luciferase cAMP sensor (parent reporter line from Promega); MC3R clone generated in-house, G418 selection
Sequence (P41968 whole entry): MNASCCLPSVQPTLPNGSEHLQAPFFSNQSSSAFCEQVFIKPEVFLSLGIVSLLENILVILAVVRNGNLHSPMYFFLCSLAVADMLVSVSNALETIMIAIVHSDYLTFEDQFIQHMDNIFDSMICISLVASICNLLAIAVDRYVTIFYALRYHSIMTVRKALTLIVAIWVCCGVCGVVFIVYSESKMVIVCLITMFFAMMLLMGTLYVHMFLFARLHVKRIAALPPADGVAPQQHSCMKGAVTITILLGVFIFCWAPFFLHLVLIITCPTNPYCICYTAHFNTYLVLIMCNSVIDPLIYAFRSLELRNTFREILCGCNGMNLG
Experiment: split-luciferase cAMP sensor assay, agonist mode (measurement window 1), hMC3R
Format: cell-based
Details: MC4R versus MC3R
Positions of bridges follow the written chain, without caps; N, C: chain ends. Non-standard residues stand in square brackets, D forms with d. Residues, ends and D or L forms follow the SMILES beside them. Cit = NC(=O)NCCC[C@H](N)C(=O)O; Aib = CC(C)(N)C(=O)O
OBSERVED PROPERTY: MC4R selectivity vs MC3R

CC(=O)N[C@@H](CCCNC(=N)N)C(=O)N[C@H]1CSSC[C@@H](C(N)=O)NC(=O)[C@H](Cc2c[nH]c3ccccc23)NC(=O)[C@H](CCCNC(=N)N)NC(=O)[C@@H](Cc2ccccc2)NC(=O)[C@H](CCCNC(N)=O)NC(=O)[C@H](C)NC1=O [CTX-1287, Arg-cyclo(Cys-Ala-Cit-D-Phe-Arg-Trp-Cys)] (Ac-RCA[Cit][dF]RWC-NH2; disulfide 2-8 (inferred))
66
CC(=O)N[C@H]1CSSC[C@@H](C(N)=O)NC(=O)[C@H](Cc2ccccc2)NC(=O)[C@H](CCCNC(=N)N)NC(=O)[C@@H](Cc2ccccc2)NC(=O)[C@H](Cc2c[nH]cn2)NC(=O)C(C)(C)NC1=O [CTX-1634, cyclo(Cys-Aib-His-D-Phe-Arg-Phe-Cys)] (Ac-C[Aib]H[dF]RFC-NH2; disulfide 1-7 (inferred))
6.68
C[C@H]1NC(=O)CSC[C@@H](C(N)=O)NC(=O)[C@H](Cc2c[nH]c3ccccc23)NC(=O)[C@H](CCCNC(=N)N)NC(=O)[C@@H](Cc2ccccc2)NC(=O)[C@H](Cc2c[nH]cn2)NC1=O
76
